// reported percentage of parent peptide remaining intact for each item listed
- PROTOCOL: Metabolic study in mice (radiochromatogram of ex-vivo mouse blood)
- Parameters: species or system Swiss albino mice
- SETUP CONDITIONS: mouse blood 5 min after injection
VALUE TYPE: percentage of parent peptide remaining intact

CC(C)CC(CC(C)C)NC(=O)[C@H](Cc1cnc[nH]1)NC(=O)CNC(=O)[C@@H](NC(=O)[C@H](C)NC(=O)[C@H](Cc1c[nH]c2ccccc12)NC(=O)[C@H](CCC(N)=O)NC(=O)[C@@H](Cc1ccccc1)NC(=O)COCC(=O)Nc1ccc(CNC(=O)CN2CCN(CC(=O)O)CCN(CC(=O)O)CCN(CC(=O)O)CC2)cc1)C(C)C [[111In]NeoBOMB-1] [metal not drawn]    > 91%
CC(C)CC(CC(C)C)NC(=O)[C@H](Cc1cnc[nH]1)NC(=O)CNC(=O)[C@@H](NC(=O)[C@H](C)NC(=O)[C@H](Cc1c[nH]c2ccccc12)NC(=O)[C@H](CCC(N)=O)NC(=O)[C@@H](Cc1ccccc1)NC(=O)COCC(=O)Nc1ccc(CNC(=O)C2C[N]3CC[NH][Tc]34(=[O])(=[O])[NH]CC[N]4C2)cc1)C(C)C (stereo partly shown) [[99mTc]NeoBOMB-2]    > 88%
CC(C)CC(CC(C)C)NC(=O)[C@H](Cc1cnc[nH]1)NC(=O)CNC(=O)[C@@H](NC(=O)[C@H](C)NC(=O)[C@H](Cc1c[nH]c2ccccc12)NC(=O)[C@H](CCC(N)=O)NC(=O)[C@@H](Cc1ccccc1)NC(=O)COCC(=O)Nc1ccc(CNC(=O)CN2CCN(CC(=O)O)CCN(CC(=O)O)CCN(CC(=O)O)CC2)cc1)C(C)C [[67Ga]NeoBOMB-1] [metal not drawn]    > 97%
CC(C)CC(CC(C)C)NC(=O)[C@H](Cc1cnc[nH]1)NC(=O)CNC(=O)[C@@H](NC(=O)[C@H](C)NC(=O)[C@H](Cc1c[nH]c2ccccc12)NC(=O)[C@H](CCC(N)=O)NC(=O)[C@@H](Cc1ccccc1)NC(=O)COCC(=O)Nc1ccc(CNC(=O)CN2CCN(CC(=O)O)CCN(CC(=O)O)CCN(CC(=O)O)CC2)cc1)C(C)C [[177Lu]NeoBOMB-1] [metal not drawn]    > 92%

Each recorded value in this set is attributed to patent US11083805B2.
